Hey, just so you know, these numbers are from patent US11613546B2.

Test: Cytotoxicity assay in MT-4 cells
Format: cell-based
Conditions: human, uninfected MT-4 cells, 5 days, Cell Titer Glo; read-out: CC50
Method: Compounds were tested in a high-throughput 384-well assay format for their ability to inhibit the replication of HIV-1 (IIIB) in MT-4 cells. […] After 5 days incubation in a humidified and temperature controlled incubator (37° C.), Cell Titer Glo (Promega) was added to the assay plates and chemiluminescence read using an Envision plate-reader. […]
# CC50 at 5 days per record follows
Kindly provide the numeric value in µM only, without the unit symbol.

Q: If you can, please state the reported CC50 at 5 days value of C[C@@H]1C[C@H](F)[C@H](CF)N2CN1n1cc(C(=O)NCc3c(F)cc(F)cc3F)c(=O)c(O)c1C2=O .
Ans: 9.44

Q: Value lookup for CC50 at 5 days; key = CC(C)[C@@H]1CC[C@H](C)N2CN1n1cc(C(=O)NCc3c(F)cc(F)cc3F)c(=O)c(O)c1C2=O
Ans: 10.9

Q: Which value of CC50 at 5 days has been reported for C[C@H]1C=C[C@@H](CF)N2CN1C(=O)c1c(O)c(=O)c(C(=O)NCc3ccc(F)cc3F)cn12 in the records?
Ans: 15

Q: So what's the measured CC50 at 5 days for this one? C[C@@H]1C[C@H](F)[C@H](C)N2CN1n1cc(C(=O)NCc3ccc(F)cc3F)c(=O)c(O)c1C2=O
Ans: 9.21

Q: I have this compound here, C[C@@H]1C[C@@H](CF)[C@H](C)N2CN1n1cc(C(=O)NCc3c(F)cc(F)cc3F)c(=O)c(O)c1C2=O , and I need its recorded CC50 at 5 days.
Ans: 8.93

Q: Name the recorded CC50 at 5 days for C[C@@H]1CC[C@@H](C)N2CN1C(=O)c1c(O)c(=O)c(C(=O)NCc3ccc(F)cc3F)cn12 .
Ans: 25.5

Q: Form field: reported CC50 at 5 days of C[C@@H]1C=C(F)[C@H](C)N2CN1n1cc(C(=O)NCc3c(F)cc(F)cc3F)c(=O)c(O)c1C2=O
Ans: 29.5

Q: Reported CC50 at 5 days for C[C@@H]1C=CCN2CN1n1cc(C(=O)NCc3c(F)cc(F)cc3F)c(=O)c(O)c1C2=O : what is it?
Ans: 11.6

Q: I am curious: what CC50 at 5 days value has been reported for C[C@H]1CCCCN2CN1n1cc(C(=O)NCc3ccc(F)cc3F)c(=O)c(O)c1C2=O ?
Ans: 7.03

Q: So what does the record say about CC50 at 5 days for CC[C@@H]1CC[C@H](C)N2CN1n1cc(C(=O)NCc3c(F)cc(F)cc3F)c(=O)c(O)c1C2=O ?
Ans: 7.65

Q: Find the recorded CC50 at 5 days belonging to C[C@H]1CC[C@@H](CF)N2CN1C(=O)c1c(O)c(=O)c(C(=O)NCc3ccc(F)cc3F)cn12 and report it.
Ans: 11

Q: Which CC50 at 5 days value belongs to CC(C)[C@@H]1C=C[C@H](C)N2CN1n1cc(C(=O)NCc3c(F)cc(F)cc3F)c(=O)c(O)c1C2=O ?
Ans: 6.81

Q: Query (compound): C[C@@H]1CC[C@H](C)N2CN1n1cc(C(=O)NCc3ccc(F)cc3F)c(=O)c(O)c1C2=O ; field requested: CC50 at 5 days
Ans: 8.57

Q: For the compound shown here, C[C@@H]1C/C=C\CN2CN1n1cc(C(=O)NCc3c(F)cc(F)cc3F)c(=O)c(O)c1C2=O , give the reported CC50 at 5 days.
Ans: 11.4

Q: Record request: CC50 at 5 days value, item C[C@H]1C=C[C@@H](CF)N2CN1C(=O)c1c(O)c(=O)c(C(=O)NCc3c(F)cc(F)cc3F)cn12
Ans: 16.4

Q: Which CC50 at 5 days value is on record for C[C@@H]1C=C[C@H](C)N2CN1n1cc(C(=O)NCc3ccc(F)cc3F)c(=O)c(O)c1C2=O ?
Ans: 18.7

Q: Recorded CC50 at 5 days of C[C@H]1C=CCN2CN1C(=O)c1c(O)c(=O)c(C(=O)NCc3c(F)cc(F)cc3F)cn12 , please.
Ans: 14.2

Q: Look up CC50 at 5 days for this compound: C[C@H]1CC[C@@H](C(F)F)N2CN1C(=O)c1c(O)c(=O)c(C(=O)NCc3ccc(F)cc3F)cn12
Ans: 13.7

Q: Quick check: CC50 at 5 days of C[C@@H]1C=CC(C)(C)N2CN1n1cc(C(=O)NCc3ccc(F)cc3F)c(=O)c(O)c1C2=O ?
Ans: 47.1

====

EC50 by entry:
Test system: pLai RLuc reporter virus
Assay: HIV MT-4 serum shift antiviral reporter assay
Type: cell-based
Conditions: Human immunodeficiency virus 1, 72 h, read-out: RLUC 50% HS (nM), HS/CCM: 50% human serum, 72 h, Renilla Glo
Answer with a number only, understood to be in nM.

# mol, EC50 (nM)
records = [
    ("CO[C@@H]1[C@H](OC)[C@@H](C)N2CN(C(=O)c3c(O)c(=O)c(C(=O)NCc4c(F)cc(F)cc4F)cn32)[C@H]1C", 1.04),
    ("C[C@H]1CCCCN2CN1n1cc(C(=O)NCc3ccc(F)cc3F)c(=O)c(O)c1C2=O", 1880),
]

Now look at this one.
Q: Fill blank: measured EC50 of the compound CC(C)[C@@H]1CC[C@H](C)N2CN1n1cc(C(=O)NCc3c(F)cc(F)cc3F)c(=O)c(O)c1C2=O is ____.
Ans: 277

====

Test system: MT-4 cells
Assay: Cytotoxicity assay in MT-4 cells
Assay type: cell-based
List of CC50 values.
The figure you give is taken to be in µM; do not add the unit.

Examples with their reported CC50 follow.
# mol, CC50 (µM)
records = [
    ("C[C@@H]1/C=C\\C[C@@H](C)N2CN1C(=O)c1c(O)c(=O)c(C(=O)NCc3c(F)cc(F)cc3F)cn12", 13.4),
    ("C[C@H]1C=C[C@H](CF)N2CN1C(=O)c1c(O)c(=O)c(C(=O)NCc3c(F)cc(F)cc3F)cn12", 25.4),
    ("O=C(NCc1c(F)cc(F)cc1F)c1cn2c(c(O)c1=O)C(=O)N1CCCCN2C1", 15.2),
]

The record that follows has no CC50 shown yet.
Q: What CC50 value was documented for this compound, C[C@@H]1CC[C@H](CF)N2CN1n1cc(C(=O)NCc3c(F)cc(F)cc3F)c(=O)c(O)c1C2=O ?
Ans: 9.81

====

Assay: Cytotoxicity assay in MT-4 cells
Type: cell-based
Details: human, uninfected MT-4 cells, 5 days, Cell Titer Glo; read-out: CC50
# if measured CC50 at 5 days < 10 µM: criterion met  # else: criterion not met

See these solved cases before continuing.
# compound, discrete_label
rows = [
    ("C[C@H]1[C@@H](F)C[C@H](C)N2CN1C(=O)c1c(O)c(=O)c(C(=O)NCc3ccc(F)cc3F)cn12", "criterion not met"),
    ("C[C@@H]1C=C[C@@H](C)N2CN1C(=O)c1c(O)c(=O)c(C(=O)NCc3c(F)cc(F)cc3F)cn12", "criterion not met"),
    ("C[C@@H]1CCCCN2CN1n1cc(C(=O)NCc3c(F)cc(F)cc3F)c(=O)c(O)c1C2=O", "criterion not met"),
    ("C[C@@H]1CC(F)(F)[C@H](C)N2CN1n1cc(C(=O)NCc3ccc(F)cc3F)c(=O)c(O)c1C2=O", "criterion not met"),
    ("C[C@H]1CC[C@@H](CF)N2CN1n1cc(C(=O)NCc3ccc(F)cc3F)c(=O)c(O)c1C2=O", "criterion met"),
    ("C[C@H]1C=C[C@@H](CF)N2CN1n1cc(C(=O)NCc3ccc(F)cc3F)c(=O)c(O)c1C2=O", "criterion met"),
    ("CO[C@@H]1C[C@@H](C)N2CN(C(=O)c3c(O)c(=O)c(C(=O)NCc4c(F)cc(F)cc4F)cn32)[C@H]1C", "criterion not met"),
    ("CO[C@@H]1[C@H](OC)[C@@H](C)N2CN(C(=O)c3c(O)c(=O)c(C(=O)NCc4c(F)cc(F)cc4F)cn32)[C@H]1C", "criterion not met"),
    ("C[C@@H]1C/C=C\\[C@H](C)N2CN1n1cc(C(=O)NCc3c(F)cc(F)cc3F)c(=O)c(O)c1C2=O", "criterion not met"),
    ("C[C@@H]1CC[C@H](CF)N2CN1n1cc(C(=O)NCc3ccc(F)cc3F)c(=O)c(O)c1C2=O", "criterion met"),
]

Q: Is the reported CC50 at 5 days for C[C@H]1CC[C@H](C)N2CN1C(=O)c1c(O)c(=O)c(C(=O)NCc3c(F)cc(F)cc3F)cn12 strictly below 10 µM?
Ans: criterion met

Q: Check if CC50 at 5 days falls below 10 µM for C[C@@H]1C[C@H](F)[C@H](C)N2CN1n1cc(C(=O)NCc3c(F)cc(F)cc3F)c(=O)c(O)c1C2=O .
Ans: criterion met

Q: I wonder whether CC1N2C(=O)c3c(O)c(=O)c(C(=O)NCc4c(F)cc(F)cc4F)cn3N1[C@H](C)C=C[C@@H]2C (some centres unmarked) has CC50 at 5 days below 10 µM. Can you tell?
Ans: criterion not met
